Test system: HEK293T
assay name: median enrichment of reporter reads in eGFP-reduced (low/intermediate) vs eGFP-high sorted cells (eGFP-extension fusion abundance) (ratio); higher = stronger loss of eGFP-fusion protein abundance (more destabilising extension)

| sequence input | median enrichment |
| --- | --- |
| YIMDWDILYFSC [UBA5] | 13 |
| RLHTCMLSPRGNGLYIAHFTLFRRHFIPALVLLEGLSRQSSSCSASVCDSPPSTPMALSLGDSSSPRKEGGVAEDLQPWPRGA [PRKAB1] | 7.16 |
| RPSTVPGP [HYKK] | 0.522 |
| YILNLVCRPSRGIKRLALVVKNKADSQTRSDFCPCSSFDVLSVALFLIASSTCKMLFTFCLG [DAB2] | 7.19 |
| LDRKEYERAIHHQTAHTGEK [ZNF573] | 0.396 |
| CCCCCCCCC [Cys09] | 7.96 |
| YHQNLCQNTKECA [TLL1] | 0.773 |
| CGGLPRRAKMAEMILKITEEREDQPEFPLDICVFLFFYFVLFFLLLLLP [SOX9] | 9.11 |
| YGRDWHRLAFQHLLSPTLHSLLPCLSNKPNAACEAFFIFLFTLFLMLPTLPFRFFC [RSU1] | 10.2 |
| YTPLCHFSGDPAFLIWK [CENPE] | 5.97 |
| QPETGGSPPARSGASSCQSSWCYPLNPSAATATVGLRVSEQERKDKLFVVPTMLRFGNPGVFPGGLRKQSL [TNFAIP3] | 4.84 |
| RIQPKCQVRSEGIFH [ABCC4] | 1.49 |
| YGFKTFLLHSTNLTSF [SNED1] | 33.4 |
| SALGWSQGGTTQAPWAPRERGGIRAGQPPGCRCQEQSQAQVAPAACPVPFPKAPLHIEGRKREFRQLHSPFTPNPVFYSPEKR [STARD8] | 3.27 |
| WARTLNRTPVGPARTACSAGDGSDPWSSIAPHDIESRPVFALWEENGRESGQLSQSIRAGRT [ABCC6] | 7.78 |

====

We begin with a simple list: items and their reported median enrichment.
System: HEK293T
assay name: median enrichment of reporter reads in eGFP-reduced (low/intermediate) vs eGFP-high sorted cells (eGFP-extension fusion abundance) (ratio); higher = stronger loss of eGFP-fusion protein abundance (more destabilising extension)

| substance | median enrichment |
| --- | --- |
| SDQLVCL [PPP1R15A] | 0.401 |
| LGTQASPSLTAEVRNKRWFRVPA [PSMC3] | 8.36 |
| SGPPPAILSS [CYP4A22] | 0.549 |

====

Test system: HEK293T
assay name: median enrichment of reporter reads in eGFP-reduced (low/intermediate) vs eGFP-high sorted cells (eGFP-extension fusion abundance) (ratio); higher = stronger loss of eGFP-fusion protein abundance (more destabilising extension)

| substance | median enrichment |
| --- | --- |
| LVWGPCQPAAPKPAPLPKQPRPLPLNPGPGRPGRPPVTAAAPALCRAALTCLPSQPLTSRLSLGQREPFGGAACLLWFWEG [FLNA] | 3.92 |
| QLPMPPQNWLLRVN [TSC22D1] | 4.17 |
| CYSFQLLPLCLPG [TRIM55] | 7.06 |
| SKQVTDLF [FOXN3] | 0.53 |
| YPVGGWRVCHSNLIESRKTEGNAAAN [OR52E8] | 4 |
| RVWGPCQPAAPKPAPLPKQPRPLPLNPGPGRPGRPPVTAAAPALCRAALTCLPSQPLTSRLSLGQREPFGGAACLLWFWEG [FLNA] | 3.47 |
| SNRIEQNRIE [PCSK5] | 0.616 |
| SNIWLRCHWLRPTRSSFGWCRDHMHIIPGINTELFVNIAAPVF [LRRC6] | 12.4 |
| LPFSGLQPPPGWKPWGPSGLGGAASRERAPFSGLPPQHAAS [CDR2L] | 5.38 |
| LETIMKKRVHISISKS [CTLA4] | 37.7 |
| KIMRHTV [TBC1D32] | 6.86 |
| EAKSRCTQHVLGMQPQEVPDLKQPDSYLA [GREM1] | 0.305 |
| QSTLTYFQKYNFRYHANFMTSKGCCYNVLTER [TDGF1] | 6.46 |

====

Test system: HEK293T
assay name: median enrichment of reporter reads in eGFP-reduced (low/intermediate) vs eGFP-high sorted cells (eGFP-extension fusion abundance) (ratio); higher = stronger loss of eGFP-fusion protein abundance (more destabilising extension)
We begin with a simple list: items and their reported median enrichment.
readout name: median enrichment

| sequence input | result value |
| --- | --- |
| RNQVASCPLLRGNPRPLASLPTYKALSQGIAGPRCLDPGCASPSLCSPWKGR [HSPBP1] | 7.21 |
| EKTVCKRSGVQEITSFDRSMYRKFKFCLRLHKLGAFLRCFSCSNLFVS [SRSF3] | 10 |
| RRGEGRPAVDSLILGRSLGCAAISFCECANTKLSRAKL [SLC25A25] | 8.98 |

====

Test system: HEK293T
assay name: median enrichment of reporter reads in eGFP-reduced (low/intermediate) vs eGFP-high sorted cells (eGFP-extension fusion abundance) (ratio); higher = stronger loss of eGFP-fusion protein abundance (more destabilising extension)
Short version: median enrichment at least 3 is TRUE, less is FALSE.

| sequence input | label class |
| --- | --- |
| SVAGGVTARSPDFTSFGPVLL [UTP14A] | FALSE |
| RCAGSFLPSVKGQRCADLIFQLTTCFKRKIAHEKCLLAFQSIFEITG [FAM104A] | TRUE |
| WPPPASLSPHP [TTC24] | FALSE |
| LRMKQLLSGPALPHSCASSALLSSQT [LCN12] | TRUE |
| WGWKGPEG [SLC35B2] | FALSE |
| YKSKNIFLKVMMHSFGW [CENPW] | TRUE |

====

System: HEK293T;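 further: lentiviral eGFP-IRES-mCherry reporter pool sorted by FACS 96 h post-transduction, gated on mCherry-high cells, Illumina read counts normalized per million, median across four biological replicates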
assay name: median enrichment of reporter reads in eGFP-reduced (low/intermediate) vs eGFP-high sorted cells (eGFP-extension fusion abundance) (ratio); higher = stronger loss of eGFP-fusion protein abundance (more destabilising extension)
Short version: median enrichment at least 4 is met, less is not met.

| substance | label class |
| --- | --- |
| WPVRPLSSPS [TBL3] | not met |
| ESVAFLLFPH [NKAIN2] | met |
| YGAPTFDFYLSSSWIF [HMGA2] | met |
| GSYISPSIRGHTQESNFALLQALVEAA [ZNF337] | met |
| LATWRNCLCTGCGPTLSS [MED12] | met |
| WDSSPSPSDQGPSSSKPEAELPAHPCRPPKPTPPHPV [ARL8A] | not met |
| LVGWLLVFVSFLSCLLLKGNQK [MYCT1] | met |
| GNHGARAARCVQRRAHRHHPHPDQPAYRGARAPLPEAAQGHQR [UCKL1] | not met |
| WGSVQGLSH [CST5] | not met |
| LEKAIWDLITLNRHANTVCVRALCIQ [PCDH9] | met |
| RQSWCCRPIGRSWKASGCVPAMSWHWQSWRRRRANPRAQRTLRKPAGAESCVGHPTRHPSSLRRPVGRQGSRGFALLLSSRVM [RAB15] | not met |
| CLSGRANPENEDWKKEKKKNTSKVSSEIVLHLLYSLEDFHYVLTTLKCVNS [FOXP1] | met |
| QEGQDLYSRLVQQRLMD [TAP2] | not met |
| LIPVDPQGLAKARDTQREMLVIPLENLASNFLYV [KRT38] | met |
| SGPPFGHHQVPKVPQEASTLHARPASISLSFPVWPSFEGHVRWRSQARQTLTRGLSSKRALGWTTENISSRGSYNKNTYLPAL [PLPP7] | not met |
| FFFFFFFF [Phe08] | met |
| CGVSPGLMVCLL [APOBEC3F] | met |
| RWTSLFPGPRTLQEMETVQRAVWSHNLNRFSGAPSLLPSLQ [RPRD1A] | met |
| GGEERRADLGRALRTWPRARDSPGSSSPWQAQQHVPQIWKGLPLCQCLGGCHGCPHPLLSVCGVEEPTPASCQDHLGGHTPAK [GPRC5C] | not met |
| RKDNSWKPQQFSIQGIYLRQIEYIL [ARL6] | met |
| ECLSIKSGFAP [NPL] | not met |
| QEPHALKKTWEDMVAWNCHPRIPC [ZIM3] | not met |
| RLPAAQKNFALSFPVLFHTQKDPRKPVFNM [NR3C2] | not met |
| LLMMFQKPK [TGIF2LX] | met |
| QAVNSTFKVI [LMNTD1] | not met |
| QVFGKQQRASPLPGGLPCRFWASFPCLSLFRCAFHL [MAP2K1] | met |
| KAQKTEALLPLAGSRDI [PNMA5] | not met |
| KMDPCEIYHSLVSPSFLSFLNSTFWRDFPK [OR9Q2] | not met |
| YKCGKAFTKSSYCVQHLKFNTEQMQYKCNDSGRTFIILEGL [ZNF736] | met |
| LTFSGNRADDYNIFFLMLTFLKIHIWDSYYQGSTYVNLQFMFQDICQMYYRCL [SUV39H2] | met |
| SGAGPGPRGGTSINSVAKLE [MYL7] | not met |
| PWTWYTSMWSCWARGVLCAVNSVGSCSGVGARFLPPWAEGPFPLVLCPHPPPFSCSWASALPRASQVLLGREGNGEKGEASSV [KLHDC3] | met |
| YVCAEESKTPFRATIPQ [SLC22A25] | not met |
| YPGGRVAAGGACAEAS [SLC7A5] | not met |
| YQNNGFL [GNL3] | not met |
| CSFQRNMVSGQKDC [ZNF831] | not met |
| WATLRSVFPLPPSPHVRRPPPRCSRGS [C19orf57] | met |
| WGFRSAT [KIF15] | not met |
| RLWSRHPAEWGPRGCQLGALPLAATLWSGRVLHHQEDPILSSVSCPSCCGMLSTEPTAHLPLHLPESVSICNKRQPRLPRAVS [INAFM1] | not met |
